measurement target: Glutamate receptor ionotropic, NMDA 1 (Homo sapiens)
protocol details: Concentration required for 50% Inhibition of responses at cloned NR1A/2AB NMDA expressed in Xenopus oocytes
Entries annotated with measured IC50
readout name: IC50 (µM)

• C(#Cc1ccc2[nH]ncc2c1)CN1CCC(Cc2ccccc2)CC1 = 0.38
• C(#Cc1ccc2[nH]ncc2c1)CCN1CCC(Cc2ccccc2)CC1 = 0.25
• O=c1[nH]c2ccc(C#CCCN3CCC(Cc4ccccc4)CC3)cc2[nH]1 = 0.089
• COc1ccc(CC2CCN(CC#Cc3ccc4[nH]c(O)nc4c3)CC2)cc1 = 0.026
• Oc1nc2cc(C#CCN3CCC(O)(Cc4ccccc4)CC3)ccc2[nH]1 = 0.019
• O=C1Cc2cc(C#CCN3CCC(Cc4ccccc4)CC3)ccc2N1 = 0.11
• C(#Cc1ccc2[nH]ccc2c1)CN1CCC(Cc2ccccc2)CC1 = 15
• O=C1Nc2ccc(C#CCCN3CCC(Cc4ccccc4)CC3)cc2C1=O = 1.8
